- subjectOfTest: Cholinesterase (Equus caballus)
- Sequence (P81908 whole entry): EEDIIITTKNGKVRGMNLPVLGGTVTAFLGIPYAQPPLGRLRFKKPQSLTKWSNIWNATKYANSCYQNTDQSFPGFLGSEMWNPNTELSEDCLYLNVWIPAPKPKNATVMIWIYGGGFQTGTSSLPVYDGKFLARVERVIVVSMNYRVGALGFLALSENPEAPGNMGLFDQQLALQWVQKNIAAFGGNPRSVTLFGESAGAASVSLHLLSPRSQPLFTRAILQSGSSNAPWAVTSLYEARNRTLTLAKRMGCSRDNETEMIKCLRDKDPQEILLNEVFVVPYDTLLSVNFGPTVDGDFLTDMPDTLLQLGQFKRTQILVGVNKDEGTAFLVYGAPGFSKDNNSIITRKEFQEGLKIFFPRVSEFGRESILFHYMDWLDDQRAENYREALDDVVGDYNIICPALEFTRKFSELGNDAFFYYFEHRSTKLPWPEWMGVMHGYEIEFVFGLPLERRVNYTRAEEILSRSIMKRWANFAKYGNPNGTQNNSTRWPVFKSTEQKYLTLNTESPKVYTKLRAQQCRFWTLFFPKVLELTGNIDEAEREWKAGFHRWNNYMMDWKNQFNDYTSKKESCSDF
- measurementNotes: Inhibition of horse serum BuChE by Ellman's method
pIC50: −log10 of the molar value.
Entries and their measured pIC50 follow.
quantityName: pIC50

INSERT INTO results (itemsmiles, subjectoftest, quantityname, measuredresult) VALUES
  ('O=Cc1ccc(O[C@@H]2OC[C@@H](OC(=O)c3ccccc3)[C@@H](OC(=O)c3ccccc3)[C@H]2OC(=O)c2ccccc2)cc1', 'Cholinesterase (Equus caballus)', 'pIC50', 4.19),
  ('CO/N=C\c1ccc(O[C@@H]2OC[C@@H](OC(=O)c3ccccc3)[C@@H](OC(=O)c3ccccc3)[C@H]2OC(=O)c2ccccc2)cc1', 'Cholinesterase (Equus caballus)', 'pIC50', 4.34),
  ('NC(=S)N/N=C/c1ccc(O[C@@H]2OC[C@@H](OC(=O)c3ccccc3)[C@@H](OC(=O)c3ccccc3)[C@H]2OC(=O)c2ccccc2)cc1', 'Cholinesterase (Equus caballus)', 'pIC50', 4.14),
  ('NC(=O)N/N=C/c1ccc(O[C@@H]2OC[C@@H](OC(=O)c3ccccc3)[C@@H](OC(=O)c3ccccc3)[C@H]2OC(=O)c2ccccc2)cc1', 'Cholinesterase (Equus caballus)', 'pIC50', 4.31);

###

Parameter Ki, tested on Acetylcholinesterase (Electrophorus electricus), listed per item.
quantityName: Ki (nM)

INSERT INTO assay_data (itemsmiles, measuredresult) VALUES
  ('O=Cc1ccc(O[C@@H]2O[C@H](CO)[C@@H](O)[C@H](O)[C@H]2O)cc1', 730),
  ('O=Cc1ccc(O[C@@H]2OC[C@@H](O)[C@@H](O)[C@H]2O)cc1', 510),
  ('CO/N=C\c1ccc(O[C@@H]2O[C@H](CO)[C@@H](O)[C@H](O)[C@H]2O)cc1', 130);

###

- subjectOfTest: Acetylcholinesterase (Electrophorus electricus, UniProt O42275)
- Sequence (O42275 whole entry): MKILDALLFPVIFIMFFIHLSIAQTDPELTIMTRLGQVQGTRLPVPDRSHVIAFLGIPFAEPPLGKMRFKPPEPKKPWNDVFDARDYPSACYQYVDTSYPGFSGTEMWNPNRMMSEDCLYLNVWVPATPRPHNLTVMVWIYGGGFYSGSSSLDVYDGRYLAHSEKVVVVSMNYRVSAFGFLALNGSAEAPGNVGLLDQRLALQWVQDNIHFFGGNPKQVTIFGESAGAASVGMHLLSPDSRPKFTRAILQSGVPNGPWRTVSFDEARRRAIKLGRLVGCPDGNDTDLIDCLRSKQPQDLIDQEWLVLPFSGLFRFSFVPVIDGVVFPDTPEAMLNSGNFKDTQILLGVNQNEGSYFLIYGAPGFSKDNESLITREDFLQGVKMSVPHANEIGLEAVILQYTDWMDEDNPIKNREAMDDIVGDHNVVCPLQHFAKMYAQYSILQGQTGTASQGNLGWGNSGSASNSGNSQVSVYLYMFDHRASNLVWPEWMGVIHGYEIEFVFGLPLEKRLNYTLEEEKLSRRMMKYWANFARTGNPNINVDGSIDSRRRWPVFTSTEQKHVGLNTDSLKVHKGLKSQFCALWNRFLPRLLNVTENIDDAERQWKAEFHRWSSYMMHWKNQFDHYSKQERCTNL
Mark y only when IC50 stays strictly below 3 µM. Values equal to the cut-off are n.

INSERT INTO results (itemsmiles, discretelabel) VALUES
  ('CO/N=C\c1ccc(O[C@@H]2O[C@H](COC(C)=O)[C@@H](OC(C)=O)[C@H](OC(C)=O)[C@H]2OC(C)=O)cc1', 'n'),
  ('NC(=S)N/N=C/c1ccc(O[C@@H]2O[C@H](CO)[C@@H](O)[C@H](O)[C@H]2O)cc1', 'n'),
  ('CC(=O)OC[C@H]1O[C@@H](Oc2ccc(C=O)cc2)[C@H](OC(C)=O)[C@@H](OC(C)=O)[C@@H]1OC(C)=O', 'y'),
  ('CC(=O)OC[C@H]1O[C@@H](Oc2ccc(/C=N/NC(N)=S)cc2)[C@H](OC(C)=O)[C@@H](OC(C)=O)[C@@H]1OC(C)=O', 'n'),
  ('CC(=O)OC[C@H]1O[C@@H](Oc2ccc(C=O)cc2)[C@H](OC(C)=O)[C@@H](OC(C)=O)[C@H]1OC(C)=O', 'n'),
  ('CO/N=C\c1ccc(O[C@@H]2O[C@H](CO)[C@@H](O)[C@H](O)[C@H]2O)cc1', 'y');

###

Let's go through some recorded pIC50 values for Acetylcholinesterase (Electrophorus electricus) together.
pIC50: −log10 of the molar value.
quantityName: pIC50

INSERT INTO measurements (itemsmiles, measuredresult) VALUES
  ('O=Cc1ccc(O[C@@H]2OC[C@@H](OC(=O)c3ccccc3)[C@@H](OC(=O)c3ccccc3)[C@H]2OC(=O)c2ccccc2)cc1', 4.85),
  ('NC(=S)N/N=C/c1ccc(O[C@@H]2OC[C@@H](OC(=O)c3ccccc3)[C@@H](OC(=O)c3ccccc3)[C@H]2OC(=O)c2ccccc2)cc1', 4.33),
  ('O=Cc1ccc(O[C@@H]2OC[C@@H](O)[C@@H](O)[C@H]2O)cc1', 6.70),
  ('O=Cc1ccc(O[C@@H]2O[C@H](CO)[C@@H](O)[C@H](O)[C@H]2O)cc1', 6.35);

FYI, the data here is from ChEMBL document CHEMBL1149785.
